The reported measurements were obtained from the supplement of paper PMC10567573.

- ASSAY TEXT: protein stability index of a GFP-peptide fusion (GPS, HEK-293T) (PSI 1-6); higher = more stable;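 also: 24-mer peptide tiles fused after GFP, lentivirally expressed, FACS-sorted into six equal bins by GFP/DsRed ratio, decoded by Illumina sequencing, PSI is the read-weighted mean bin number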
- SETUP CONDITIONS: treatment: DMSO; c terminus: a fixed tail appended
Below: a set of entries, each annotated with reported protein stability index.
Respond numerically, and do not add a unit to the figure.

Looking up EVNSAEELEGLIADPDEMRMQALL [FEM1C] , I found its protein stability index recorded as 4.89

----------
- ASSAY TEXT: protein stability index of a GFP-peptide fusion (GPS, HEK-293T) (PSI 1-6); higher = more stable
- SETUP CONDITIONS: treatment: DMSO; c terminus: a fixed tail appended
// rule not met strictly below 3 in protein stability index; rule met otherwise

Below, 2 sequences whose answers are already recorded.
                           residues   class_label
0  STYYWPRPRRYVQPPEMIGPMRPE [GAGE1]  rule not met
1  KELEARVRKPAEAERYKLERLAEA [FLOT1]      rule met

# input Test whether the sequence DKLSQKSSSSKLSRSPLKIVKKPK [EPB41L3] records protein stability index of 3 or higher.
# output rule met

# input Test whether the sequence PISEKAKDLILRFCIDSENRIGNS [STK38L] records protein stability index of 3 or higher.
# output rule not met

# input Test whether the sequence GAKDSELASQNKPLWQCYLGRFND [PDS5B] records protein stability index of 3 or higher.
# output rule not met

# input Test whether the sequence PPTTPQNEEIRAVGRLKRERSMSE [MFF] records protein stability index of 3 or higher.
# output rule met

# input Test whether the sequence AELLKANEIIKKLQGDLKTLMGKL [SASS6] records protein stability index of 3 or higher.
# output rule not met

----------
- ASSAY TEXT: protein stability index of a GFP-peptide fusion (GPS, HEK-293T) (PSI 1-6); higher = more stable
- SETUP CONDITIONS: treatment: MLN4924 1 uM, 8 h; c terminus: a fixed tail appended
REPORTED PROPERTY: protein stability index

Sample records with protein stability index:
In [3]: df
Out[3]:
                            residues        reported_property  result
0   YESEILPSTPNPQPPSCQGEAAGS [DUSP5]  protein stability index     5.3
1   SAESMVEYGTCMCLVKGIFYHCSN [SPRY1]  protein stability index    2.55
2  ASFCVETNNGAGFGLSILWVLLFT [SCAMP3]  protein stability index    2.99

Looking up RKFSRECEDQKQIKKPESFSKQIV [NEUROD6] , I found its protein stability index recorded as 4.21

Looking up TFGPIPEFSRATAEKVNQDMCMKV [CRYL1] , I found its protein stability index recorded as 3.94

Looking up GLQAQIASSGLTVEVDAPKSQDLA [KRT18] , I found its protein stability index recorded as 4.94

Looking up HSPSCLARVTGELTMTFPAGIVRV [FCHO1] , I found its protein stability index recorded as 2.67

Looking up EQTYHAKLENARLSSEMNTSTVNS [LMNB1] , I found its protein stability index recorded as 5.03

Looking up NKHLCYVFDSEKCVSIPDVVGWFV [GULP1] , I found its protein stability index recorded as 2.13

Looking up EAGSAGHVEVARLLLENGAGINTH [ANKRD17] , I found its protein stability index recorded as 4.25

Looking up ASRTWCFYNTEDIKDWEDRFYLLL [PTGFR] , I found its protein stability index recorded as 2.46

Looking up QYESIAAKNLQEAEEWYKSKYADL [PRPH] , I found its protein stability index recorded as 4.49

Looking up LACRLTPDMETKLLFMTSRVRFGQ [INTS3] , I found its protein stability index recorded as 2.23

Looking up SPNYPSKYPPDRECIYIIEAAPRQ [NETO1] , I found its protein stability index recorded as 2.77

Looking up RNLDGTLGYLLDKETLRLHPDIFL [ZER1] , I found its protein stability index recorded as 2.05

Looking up RALESELQQLRARLQGLEADCVRG [PBXIP1] , I found its protein stability index recorded as 3.31

Looking up SDSGSDKSLEGGGTAFDAETDSEM [SMG5] , I found its protein stability index recorded as 5.62

Looking up EKKESLGAAQEALSIQLQPKETQP [ZNF232] , I found its protein stability index recorded as 5.5

Looking up VTIPAGATHILVRQQGNPGHRSIY [ADAMTS4] , I found its protein stability index recorded as 2.32

Looking up LQSLRPHDEDIKTTNVKSASRQKT [ZNF396] , I found its protein stability index recorded as 5.04

Looking up GNKQWWFGGGCDLTPTYLNQEDAI [CPOX] , I found its protein stability index recorded as 3.33

Looking up ETGEAARDPSLRPARTVLVGSLSW , I found its protein stability index recorded as 2.88
